- ASSAYED SYSTEM: Cholinesterase (Homo sapiens)
ASSAY METRIC: IC50 (nM)
Give the quantity in nM, number only.

Find the recorded IC50 belonging to c1ccc(CN2CCC(CCSc3ccc(-c4ccccc4)nn3)CC2)cc1 and report it.
480

---

- ASSAYED SYSTEM: Acetylcholinesterase (Homo sapiens)
ASSAY METRIC: pIC50
When answering, recall that pIC50 equals minus log10 of the concentration in mol/L, and write that number alone.

Guide cases for pIC50, answers given:
c1ccc(CN2CCC(CCNc3cc4c(nn3)-c3ccccc3CCC4)CC2)cc1; 6.92
c1ccc(CN2CCC(CCSc3ccc(-c4ccccc4)nn3)CC2)cc1; 6.33

Provide value of pIC50 for this record tested with Acetylcholinesterase (Homo sapiens): c1ccc(CN2CCC(CCOc3ccc(-c4ccccc4)nn3)CC2)cc1
6.15

---

Each entry below lists one item and its recorded IC50 value.
- ASSAYED SYSTEM: Acetylcholinesterase (Electrophorus electricus, UniProt O42275)
- Sequence (O42275 whole entry): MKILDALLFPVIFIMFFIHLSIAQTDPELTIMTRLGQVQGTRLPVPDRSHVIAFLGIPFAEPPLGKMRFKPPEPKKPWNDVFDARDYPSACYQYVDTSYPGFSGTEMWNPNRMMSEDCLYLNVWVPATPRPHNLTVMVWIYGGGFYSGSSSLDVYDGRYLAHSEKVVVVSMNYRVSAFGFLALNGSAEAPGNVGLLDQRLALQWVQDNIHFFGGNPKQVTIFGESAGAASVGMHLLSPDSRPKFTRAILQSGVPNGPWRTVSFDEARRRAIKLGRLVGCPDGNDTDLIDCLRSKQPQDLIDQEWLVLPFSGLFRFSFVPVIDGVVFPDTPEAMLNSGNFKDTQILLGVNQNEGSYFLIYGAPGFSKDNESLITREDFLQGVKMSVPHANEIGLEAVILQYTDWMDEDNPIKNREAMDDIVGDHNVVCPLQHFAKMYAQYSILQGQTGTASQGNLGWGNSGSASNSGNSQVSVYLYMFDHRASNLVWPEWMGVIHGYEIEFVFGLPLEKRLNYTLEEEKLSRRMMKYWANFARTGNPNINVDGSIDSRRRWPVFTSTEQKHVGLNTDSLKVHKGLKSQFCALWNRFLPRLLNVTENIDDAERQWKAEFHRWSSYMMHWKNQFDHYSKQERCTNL
Give the quantity in nM, number only.

Guide cases for IC50, answers given:
Cc1cc(=NCCC2CCN(Cc3ccccc3)CC2)[nH]nc1-c1ccccc1; 21
Fc1ccc(-c2ccc(NCCC3CCN(Cc4ccccc4)CC3)nn2)cc1; 350

From here, focus on the item given below.
Provide value of IC50 for this record tested with Acetylcholinesterase (Electrophorus electricus, UniProt O42275): c1ccc(CN2CCC(CCNc3cc4c(nn3)-c3ccccc3CC4)CC2)cc1
39

---

Endpoint: IC50. System: Acetylcholinesterase (Homo sapiens, UniProt P22303). Items follow.
Sequence (P22303 whole entry): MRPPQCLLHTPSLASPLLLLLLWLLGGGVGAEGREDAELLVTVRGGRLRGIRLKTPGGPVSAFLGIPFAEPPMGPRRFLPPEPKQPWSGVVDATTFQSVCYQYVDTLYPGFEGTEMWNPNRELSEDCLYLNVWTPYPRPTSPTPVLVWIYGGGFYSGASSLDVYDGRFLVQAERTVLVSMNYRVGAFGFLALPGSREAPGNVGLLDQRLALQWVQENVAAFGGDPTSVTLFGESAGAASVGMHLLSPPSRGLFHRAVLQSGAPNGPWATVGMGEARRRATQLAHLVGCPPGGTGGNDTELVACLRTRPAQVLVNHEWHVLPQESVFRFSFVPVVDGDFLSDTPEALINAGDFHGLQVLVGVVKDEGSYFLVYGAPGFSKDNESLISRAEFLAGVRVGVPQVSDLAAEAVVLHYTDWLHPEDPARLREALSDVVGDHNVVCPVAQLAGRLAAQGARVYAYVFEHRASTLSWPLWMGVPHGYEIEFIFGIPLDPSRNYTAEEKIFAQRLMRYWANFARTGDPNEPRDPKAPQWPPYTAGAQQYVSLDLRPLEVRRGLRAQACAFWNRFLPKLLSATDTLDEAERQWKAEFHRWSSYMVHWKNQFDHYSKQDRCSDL
Give the quantity in nM, number only.

Guide cases for IC50, answers given:
Cc1cc(=NCCC2CCN(Cc3ccccc3)CC2)[nH]nc1-c1ccccc1; 39
c1ccc(CN2CCC(CCN=c3cc4c(n[nH]3)-c3ccccc3C4)CC2)cc1; 74
CCc1cc(=NCCC2CCN(Cc3ccccc3)CC2)[nH]nc1-c1ccccc1; 66
c1ccc(CN2CCC(CCNc3cc4ccc5ccccc5c4nn3)CC2)cc1; 190

Find the recorded IC50 belonging to c1ccc(CN2CCC(CCNc3cc4c(nn3)-c3ccccc3CC4)CC2)cc1 and report it.
190

---

- ASSAYED SYSTEM: Acetylcholinesterase (Electrophorus electricus)
pIC50: −log10 of the molar value.
Mark FALSE for pIC50 values under 7, and TRUE for everything at or above.

Would you say FC(F)(F)c1cc(-c2ccc(NCCC3CCN(Cc4ccccc4)CC3)nn2)cc(C(F)(F)F)c1 shows pIC50 at minimum 7?
TRUE

Query CCc1cc(=NCCC2CCN(Cc3ccccc3)CC2)[nH]nc1-c1ccccc1 next
TRUE

Query c1ccc(CN2CCC(CCNc3cccnn3)CC2)cc1 next
FALSE

Query c1ccc(CN2CCC(CCNc3cc4ccc5ccccc5c4nn3)CC2)cc1 next
TRUE

Query c1ccc(CN2CCC(CCOc3ccc(-c4ccccc4)nn3)CC2)cc1 next
FALSE

Query CC(C)c1cc(-c2ccccc2)nnc1NCCC1CCN(Cc2ccccc2)CC1 next
FALSE

---

Endpoint: IC50. System: Cholinesterase (Homo sapiens, UniProt P06276). Items follow.
Sequence (P06276 whole entry): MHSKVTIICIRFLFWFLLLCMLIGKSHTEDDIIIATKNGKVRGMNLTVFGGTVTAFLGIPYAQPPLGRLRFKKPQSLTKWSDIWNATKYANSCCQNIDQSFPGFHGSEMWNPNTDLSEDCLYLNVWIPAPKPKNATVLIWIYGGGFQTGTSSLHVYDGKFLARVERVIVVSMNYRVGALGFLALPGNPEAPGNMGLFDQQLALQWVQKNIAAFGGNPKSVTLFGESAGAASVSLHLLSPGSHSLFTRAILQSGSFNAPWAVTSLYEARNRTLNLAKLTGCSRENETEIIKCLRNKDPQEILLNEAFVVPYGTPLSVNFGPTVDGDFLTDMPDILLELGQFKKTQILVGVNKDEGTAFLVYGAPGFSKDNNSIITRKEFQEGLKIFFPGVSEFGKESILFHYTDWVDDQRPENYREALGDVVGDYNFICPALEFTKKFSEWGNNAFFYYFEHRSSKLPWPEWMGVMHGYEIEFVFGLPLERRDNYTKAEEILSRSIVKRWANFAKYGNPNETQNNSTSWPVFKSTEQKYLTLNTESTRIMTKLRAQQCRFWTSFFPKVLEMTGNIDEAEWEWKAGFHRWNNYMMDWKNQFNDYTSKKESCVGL
Give the quantity in nM, number only.

c1ccc(CN2CCC(CCNc3cc4c(nn3)-c3ccccc3CC4)CC2)cc1; 280
c1ccc(CN2CCC(CCNc3cc4ccc5ccccc5c4nn3)CC2)cc1; 270
c1ccc(CN2CCC(CCNc3cc4c(nn3)-c3ccccc3CCC4)CC2)cc1; 510

From here, focus on the item given below.
Provide value of IC50 for this record tested with Cholinesterase (Homo sapiens, UniProt P06276): CCc1cc(=NCCC2CCN(Cc3ccccc3)CC2)[nH]nc1-c1ccccc1
920

---

Endpoint: IC50. System: Acetylcholinesterase (Electrophorus electricus). Items follow.
Include the unit after the number when you answer.

Guide cases for IC50, answers given:
CN(C)c1ccc(-c2ccc(NCCC3CCN(Cc4ccccc4)CC3)nn2)cc1; 210 nM
c1ccc(CN2CCC(CCSc3ccc(-c4ccccc4)nn3)CC2)cc1; 63000 nM
O=C(CC1CCN(Cc2ccccc2)CC1)Nc1ccc(-c2ccccc2)nn1; 4200 nM
c1ccc(CN2CCC(CCNc3ccc(-c4ccc5ccccc5c4)nn3)CC2)cc1; 56 nM
c1ccc(CN2CCC(CCNc3ccc(-c4cccs4)nn3)CC2)cc1; 97 nM

Find the recorded IC50 belonging to CCc1ccccc1-c1ccc(NCCC2CCN(Cc3ccccc3)CC2)nn1 and report it.
87 nM

Query c1ccc(CN2CCC(CCNc3ccc(-c4cccnc4)nn3)CC2)cc1 next
57 nM

Query O=C(CN1CCN(Cc2ccccc2)CC1)Nc1ccc(-c2ccccc2)nn1 next
17000 nM

Query O=C(CN1CCC(Cc2ccccc2)CC1)Nc1ccc(-c2ccccc2)nn1 next
18000 nM

Query Cc1ccccc1-c1ccc(NCCC2CCN(Cc3ccccc3)CC2)nn1 next
90 nM

Query COc1ccc(NCCC2CCN(Cc3ccccc3)CC2)nn1 next
220 nM

---

Endpoint: pIC50. System: Acetylcholinesterase (Electrophorus electricus, UniProt O42275). Items follow.
When answering, recall that pIC50 equals minus log10 of the concentration in mol/L, and write that number alone.

CCCc1cc(=NCCC2CCN(Cc3ccccc3)CC2)[nH]nc1-c1ccccc1; 7.21

Find the recorded pIC50 belonging to COc1ccccc1-c1ccc(NCCC2CCN(Cc3ccccc3)CC2)nn1 and report it.
6.96

Query c1ccc(CN2CCC(CCNc3ccc(-c4ccccc4)nn3)CC2)cc1 next
6.92

---

Endpoint: IC50. System: Acetylcholinesterase (Electrophorus electricus). Items follow.
Give the quantity in nM, number only.

O=C(CNc1ccc(-c2ccccc2)nn1)N1CCC(Cc2ccccc2)CC1; 120000
CC(=O)Nc1cccc(-c2ccc(NCCC3CCN(Cc4ccccc4)CC3)nn2)c1; 58
Clc1ccccc1-c1ccc(NCCC2CCN(Cc3ccccc3)CC2)nn1; 80
c1ccc(CN2CCC(CCN=c3cc4c(n[nH]3)-c3ccccc3C4)CC2)cc1; 10
c1ccc(CC2CCN(CCNc3ccc(-c4ccccc4)nn3)CC2)cc1; 24000

Find the recorded IC50 belonging to O=C(CNc1ccc(-c2ccccc2)nn1)N1CCN(Cc2ccccc2)CC1 and report it.
15000

Query Clc1ccc(NCCC2CCN(Cc3ccccc3)CC2)nn1 next
73

Query c1ccc(CN2CCC(CCNc3cc4c(nn3)-c3ccccc3CCC4)CC2)cc1 next
22
